Tested on: Vero E6 infected with SARS-CoV-2
Experiment: inhibition of SARS-CoV-2 cytopathic effect; higher = more antiviral protection, active = above 15
Conditions: 833.33 nM; 48 h
observable: inhibition of SARS-CoV-2 cytopathic effect (%)
The reply should be a number in %, with the unit left off.

Q: Given the compound CC(C(=O)O)c1ccc2c(c1)Cc1ccccc1-2 (stereo not given) , what is its reported inhibition of SARS-CoV-2 cytopathic effect?
Result: 1.95

Q: Returns the measured inhibition of SARS-CoV-2 cytopathic effect for the input compound. Input: Cc1cn([C@H]2O[C@@H](CO)[C@H](O)[C@H]2F)c(=O)[nH]c1=O
Result: 2.27

Q: State the recorded inhibition of SARS-CoV-2 cytopathic effect for this entry: NC(=O)Nc1sc(-c2ccc(F)cc2)cc1C(N)=O
Result: -3.05

Q: Using the record for CS(=O)(=O)c1ccc(-c2nnc(/C=C/c3nnc(-c4ccc(C#N)cc4)o3)n2-c2ccccc2Cl)nc1 , report its inhibition of SARS-CoV-2 cytopathic effect.
Result: -2.5

Q: Which inhibition of SARS-CoV-2 cytopathic effect is listed for O=C(NC1CCNCC1)[C@@H]1CC[C@@H]2CN1C(=O)N2OS(=O)(=O)O ?
Result: -0.84

Q: What does the record list as inhibition of SARS-CoV-2 cytopathic effect for CC(C)NC[C@@H](O)c1ccc(O)c(O)c1 (racemic) ?
Result: 0.77

Q: I have this compound here, Nc1ccn([C@H]2C[C@H](O)[C@@H](CO)O2)c(=O)n1 , and I need its recorded inhibition of SARS-CoV-2 cytopathic effect.
Result: -0.39

Q: Item under review: O=C(O)C(O)C(O)C(=O)O (stereo not given) . Reported inhibition of SARS-CoV-2 cytopathic effect?
Result: -1.6

Q: Entry under review: O=C(/C=C/c1ccc2ccc(C(F)(F)F)cc2n1)c1ccncc1 . Reported inhibition of SARS-CoV-2 cytopathic effect?
Result: 0.28

Q: Would you mind telling me what inhibition of SARS-CoV-2 cytopathic effect value was observed for CCC1(c2ccc(N)cc2)CCC(=O)NC1=O (stereo not given) [aminoglutethimide] ?
Result: 2.95

====

In this section we review reported morphology score values for a set of molecules.
Test system: Vero E6 infected with SARS-CoV-2
Assay: morphology score (similarity to uninfected cells); higher = more like uninfected cells
Conditions: 24 h
# answer = number (no unit)

Reference set (3 entries):
molecule	result
C=CCNc1c(O)cc2c(O)c1C[C@@H](C)C[C@H](OC)[C@H](O)[C@@H](C)/C=C(\C)[C@H](OC(N)=O)[C@@H](OC)/C=C\C=C(/C)C(=O)N2 [retaspimycin] (10 µM)	-0.0349
CN(C)CCOC1=Cc2ccccc2Sc2ccc(Cl)cc21 [zotepine] (0.833333 µM)	0.061
CCN(CC)C(=O)Nc1ccc(OCC(O)CNC(C)(C)C)c(C(C)=O)c1 (centres undefined) [celiprolol] (10 µM)	0.118

The record that follows has no morphology score shown yet.
Q: // returns reported morphology score for input C=C1C[C@@]2(O)O[C@@]3(C[C@H]2C(C)C)[C@@H](C)CC[C@@H]13 [curcumol] (10 µM)
Result: 0.157

====

System: Vero E6 infected with SARS-CoV-2
Assay: inhibition of SARS-CoV-2 cytopathic effect; higher = more antiviral protection, active = above 15
Details: 10000 nM; 48 h
Form field: inhibition of SARS-CoV-2 cytopathic effect (one value per entry).
Field: numeric (%). Do not append units.

Known inhibition of SARS-CoV-2 cytopathic effect results, listed for orientation:
> print(dat)
                                   molecule                 system.under.test  result
1  CN1CCC(=C2c3ccccc3CC(=O)c3sccc32)CC1 [ketotifen]  Vero E6 infected with SARS-CoV-2   -3.64
2  Cn1c(N2CCCCS2(=O)=O)nc(C(=O)NCc2ccc(F)cc2)c(O)c1=O  Vero E6 infected with SARS-CoV-2   -1.72
3      COc1cc2ncnc(Nc3ccc(O)c(Br)c3)c2cc1OC  Vero E6 infected with SARS-CoV-2   -9.51
4  NCC(CC(=O)O)c1ccc(Cl)cc1 (stereo not given) [baclofen]  Vero E6 infected with SARS-CoV-2   -0.06
5  CCN(CC)C(=O)Nc1ccc(OCC(O)CNC(C)(C)C)c(C(C)=O)c1 (stereo not given) [celiprolol]  Vero E6 infected with SARS-CoV-2   -0.87

Q: So what does the record say about inhibition of SARS-CoV-2 cytopathic effect for CCn1c(N)c(C(=O)NC)c(=O)c2ccc(C#C[C@@](C)(O)COC)nc21 ?
Result: 6.9

Q: Fill blank: measured inhibition of SARS-CoV-2 cytopathic effect of the molecule COc1ccc(C(=O)NCc2cccnc2)cc1C(=O)NCc1cccnc1 [picotamide] is ____.
Result: -1.62

Q: For the molecule shown here, C=C1C(=O)[C@]23[C@H](O)[C@H]1CC[C@H]2[C@@]12CO[C@]3(O)[C@@H](O)[C@@H]1C(C)(C)CC[C@@H]2O [Oridonin (Isodonol)] , give the reported inhibition of SARS-CoV-2 cytopathic effect.
Result: 43.5

Q: # query: inhibition of SARS-CoV-2 cytopathic effect of entry CN(C)CCC(c1ccccc1)c1ccccn1 (stereo not given) [pheniramine]
Result: -0.28

Q: Value lookup for inhibition of SARS-CoV-2 cytopathic effect; key = Cc1cc2c(N3CCCC3)nc(N3CCCC3)nc2n1C
Result: 3.47

====

Tested on: Vero E6 infected with SARS-CoV-2
Assay: inhibition of SARS-CoV-2 cytopathic effect; higher = more antiviral protection, active = above 15
Settings: 8.33 nM; 48 h
observable: inhibition of SARS-CoV-2 cytopathic effect (%)
Just the number in %, nothing appended.

A selection of reference data follows.
> print(dat)
                                   molecule  result
1  O=C(/C=C\n1cnc(-c2cc(C(F)(F)F)cc(C(F)(F)F)c2)n1)N1CC(F)(F)C1   -1.09
2  C#CCOC(=O)C1=CCCN(C)C1 [arecaidine-propargyl-ester]    0.55
3  C[C@]12CCC(=O)C=C1CC[C@@H]1[C@@H]2[C@@H](O)C[C@@]2(C)[C@H]1CC[C@]2(O)C(=O)COC(=O)CCC(=O)O [hydrocortisone-hemisuccinate]   -5.52

Next item in the queue.
Q: Recorded inhibition of SARS-CoV-2 cytopathic effect of N=C(N)NCCN1CCCCCCC1 [guanethidine] , please.
Result: 0.59

====

Tested on: Vero E6 infected with SARS-CoV-2
Assay: inhibition of SARS-CoV-2 cytopathic effect; higher = more antiviral protection, active = above 15
Details: 833.33 nM; 48 h
Measured inhibition of SARS-CoV-2 cytopathic effect of individual entries
Kindly answer with a numeric value in %, unit omitted.

A selection of reference data follows.
> print(dat)
                                   compound  result
1  Cc1cc([C@@H](C)Nc2ccccc2C(=O)O)c2nc(N3CCOCC3)cc(=O)n2c1   -7.74
2            CC1CCN(CCCC(=O)c2ccc(F)cc2)CC1    0.99
3  CC(C)(C)NCC(O)c1cc(Cl)c(N)c(Cl)c1 (centres undefined)   -0.35
4  CC(=O)OCC1=C(C(=O)O)N2C(=O)[C@@H](NC(=O)CS/C(=N/C(C)C)NC(C)C)[C@H]2SC1    0.34
5  CC[C@@H](c1ccc(F)c(F)c1)n1c(C(=O)OC)c(-c2ccno2)[nH]c1=S    1.19
6  CCCCCCCCCC(=O)O[C@H]1CC[C@H]2[C@@H]3CCC4=CC(=O)CC[C@@H]4[C@H]3CC[C@]12C [Nandrolone decanoate]    0.02

Q: // lookup inhibition of SARS-CoV-2 cytopathic effect for Cc1cc(C)c2c(N)c(C(=O)NCc3ccc(Cl)cc3)sc2n1
Result: -0.85

Q: Any idea what its inhibition of SARS-CoV-2 cytopathic effect is? The compound is O/N=C/c1ccc(-c2ccc(O)c(F)c2)c(Cl)c1O
Result: -0.62

Q: Name the reported inhibition of SARS-CoV-2 cytopathic effect value associated with the compound c1cnc(SCc2cccnc2)nc1
Result: 0.69

====

Tested on: Vero E6 infected with SARS-CoV-2
Assay: inhibition of SARS-CoV-2 cytopathic effect; higher = more antiviral protection, active = above 15
Details: 1 nM; 48 h
The reader will find reported inhibition of SARS-CoV-2 cytopathic effect values listed item by item below.
Express your answer in %, writing the number without its unit.

Look over these answered cases.
> print(dat)
                                   molecule  result
1             C[C@H](C[C@H](N)C(=O)O)C(=O)O   -1.19
2  O=C(O)c1cc(O)c2c3nc4ccccc4oc-3cc(=O)c2n1    0.17
3  C[C@H](CCC(=O)O)[C@H]1CC[C@H]2[C@@H]3CC[C@@H]4C[C@H](O)CC[C@]4(C)[C@H]3C[C@H](O)[C@]12C   -0.18
4  O=c1[nH]c2ccccc2n1CCCN1CCN(C(c2ccccc2)c2ccccc2)CC1 [oxatomide]   -0.36
5  CCC(COC(=O)c1cc(OC)c(OC)c(OC)c1)(c1ccccc1)N(C)C (configuration not stated)   -4.71

Q: inhibition of SARS-CoV-2 cytopathic effect lookup needed for COc1cc2nc(N3CCCN(C)CC3)nc(NC3CCN(Cc4ccccc4)CC3)c2cc1OC , thanks.
Result: 0.59

Q: Give its inhibition of SARS-CoV-2 cytopathic effect value. Item: N#Cc1ccc(Cn2cncc2CN2CCN(c3cccc(Cl)c3)C(=O)C2)cc1
Result: 3.21

Q: Name the recorded inhibition of SARS-CoV-2 cytopathic effect for CC1(C)[C@@H]2C[C@@H](O)[C@@](C)(O)[C@H]1C2 [2,3-cis/exo-pinanediol] .
Result: -0.96

Q: I have this molecule here, Cc1cc(N2CCOCC2)ccc1Nc1nc(NC2CCCCC2)c2nc[nH]c2n1 , and I need its recorded inhibition of SARS-CoV-2 cytopathic effect.
Result: -1.92

Q: // lookup inhibition of SARS-CoV-2 cytopathic effect for CCOC(=O)Nc1ccc2c(c1)N(C(=O)CN(C)C)c1ccccc1CC2
Result: 3.29
